Source listed as patent US5017689A.

# experimentalTarget: δ opioid receptors (Rattus norvegicus, UniProt P33533)
# Construct: membranes prepared from whole rat brain (less cerebellum); from tissue; host or cells: whole rat brain (less cerebellum) membranes
# Sequence (P33533 whole entry): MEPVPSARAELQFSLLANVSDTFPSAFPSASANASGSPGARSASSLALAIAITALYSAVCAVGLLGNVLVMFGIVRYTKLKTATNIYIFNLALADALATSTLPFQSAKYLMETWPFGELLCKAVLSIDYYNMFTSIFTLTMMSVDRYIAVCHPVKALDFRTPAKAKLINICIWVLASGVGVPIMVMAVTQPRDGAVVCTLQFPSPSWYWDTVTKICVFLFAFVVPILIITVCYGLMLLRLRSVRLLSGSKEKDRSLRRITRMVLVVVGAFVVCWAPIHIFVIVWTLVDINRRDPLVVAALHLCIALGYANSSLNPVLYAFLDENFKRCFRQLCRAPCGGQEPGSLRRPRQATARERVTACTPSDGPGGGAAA
# testProtocol: Radioligand binding, [3H]DPDPE, brain membranes
# conditionsUsed: rat brain homogenate, 1.0 nM radioligand
quantityKind: IC50 (nM)
# output: bare number, implied unit nM

The reported IC50 of the compound CC[C@H](C)[C@H](NC(=O)[C@H](CCCN=C(N)N)NC(=O)[C@H](CCCN=C(N)N)NC(=O)[C@H](CC(C)C)NC(=O)[C@H](Cc1ccccc1)NC(=O)CNC(=O)CNC(=O)[C@@H](N)Cc1ccc(O)cc1)C(=O)N[C@@H](CCCN=C(N)N)C(=O)N1CCC[C@H]1C(=O)N[C@@H](CCCCN)C(=O)N[C@@H](CC(C)C)C(=O)N[C@@H](CCCCN)C(N)=O [Dyn A1-13NH2, reference compound] was 2.96
